# Tested on: DU-145 prostate
# assayRemarks: NCI tumour cell line growth inhibition, 48 h
// reported TGI per item

Answered examples (2):
| compound | valueMeasured |
| --- | --- |
| O=C(O)[C@H]1NC[C@H]2C(Br)=NO[C@@H]12 | > 100 µM |
| N#Cc1cc(F)cc(Oc2ccc(S(=O)(=O)C(F)F)c3c2CC(F)(F)[C@H]3O)c1 | > 100 µM |

Query compound follows.
Enquiry: Assign TGI to the following record: COc1ccc(-c2cnc(-c3ccncc3-c3cccc(OC)c3)o2)cc1
Return: 12.9 µM

====

# System: LOX IMVI melanoma
# assayRemarks: NCI tumour cell line growth inhibition, 48 h
// reported GI50 per item

| compound | GI50 |
| --- | --- |
| CN(C)CCNC(=O)Nc1ccc(N(C)c2ccnc(Nc3ccc(CS(C)(=O)=O)cc3)n2)cc1 | > 25000 nM |
| CCOC(=O)c1cc(C(=O)c2ccc(OC)c(OC)c2)n2c1ccc1ccc3cccnc3c12 | 2600 nM |
| Cn1cc(-c2ccc3ncc(-c4ccc(CC(=O)Nc5cc(C(C)(C)C)nn5C)cc4)cc3c2)cn1 | 1230 nM |

Enquiry: // fetch GI50 for Cc1ccc(C(=O)Nc2ccc(Oc3cc4cnn(C)c4cc3-c3cn[nH]c3)c(F)c2)c(=O)n1-c1ccc(F)cc1 ; system: LOX IMVI melanoma
Return: 2460 nM

Enquiry: // fetch GI50 for CCOC(=O)c1cn(C)c2c(OC)c3ccccc3c(OC)c2c1=O ; system: LOX IMVI melanoma
Return: 20700 nM

Enquiry: // fetch GI50 for N#Cc1cc(F)cc(Oc2ccc(S(=O)(=O)C(F)F)c3c2CC(F)(F)[C@H]3O)c1 ; system: LOX IMVI melanoma
Return: 35000 nM

Enquiry: // fetch GI50 for NC(=O)c1nc(-c2c(F)cccc2Cl)oc1Nc1ccc(C(=O)N2CCOCC2)cc1 ; system: LOX IMVI melanoma
Return: 914 nM

Enquiry: // fetch GI50 for O=C(CI)NC(=O)NC(=O)NCc1ccccc1 ; system: LOX IMVI melanoma
Return: 1440 nM

Enquiry: // fetch GI50 for Oc1cn(-c2ccc(Cl)cc2)nc1-c1n[nH]c(=S)n1-c1ccc(F)cc1 ; system: LOX IMVI melanoma
Return: 16800 nM

Enquiry: // fetch GI50 for OCCNc1nc2ccccc2c2[nH]c3ccccc3c12 ; system: LOX IMVI melanoma
Return: 419 nM

Enquiry: // fetch GI50 for COC(=O)c1ccc(NC(N)=NCCC(C)(C)c2ccc(C(F)(F)F)cc2)nc1 ; system: LOX IMVI melanoma
Return: 1570 nM

Enquiry: // fetch GI50 for COc1cccc(-c2cc(=O)c3cc(N4CCN(C)CC4)ccc3[nH]2)c1 ; system: LOX IMVI melanoma
Return: 2110 nM

====

# System: DU-145 prostate
# assayRemarks: NCI tumour cell line growth inhibition, 48 h
metricName: TGI

Answered examples (10):
| compound | valueMeasured |
| --- | --- |
| O=C1c2cccc3c(N4CCOCC4)ccc(c23)C(=O)N1CCN1CCN(CCCCCN2CCN(CCN3C(=O)c4cccc5c(N6CCOCC6)ccc(c45)C3=O)CC2)CC1 | > 100 µM |
| COc1ccccc1N=Nc1c(O)ccc2ccccc12 | > 100 µM |
| CN(Cc1cnc2nc(N)nc(N)c2n1)c1ccc(C(=O)NC(CCC(=O)O)C(=O)O)c2ccccc12 (configuration not stated) | > 1000 µM |
| O=C(O)CCCc1ccc2c(c1)C(C(=O)O)CC2 (configuration not stated) | > 100 µM |
| O=S(Nc1ccccc1)c1ccc(Cl)cc1 (configuration not stated) | > 100 µM |
| COC(=O)c1ccc(NC(N)=NCCC(C)(C)c2ccc(C(F)(F)F)cc2)nc1 | 13.9 µM |
| Cn1c(CO)ccc1-c1ccc(-c2ccc(CO)[se]2)[se]1 | > 100 µM |
| NC1=NC(c2ccccc2Cl)c2c(n[nH]c2N)N1 (configuration not stated) | > 100 µM |
| CC(=O)Oc1cc2c(cc1OCC(F)(F)F)[C@H]1CC[C@]3(C)[C@@H](OC(C)=O)CC[C@H]3[C@@H]1CC2=O | 51.6 µM |
| O=c1c2[nH]cnc2n(-c2ccccc2)c(=S)n1-c1ccccc1 | > 100 µM |

Enquiry: Assign TGI to the following record: O=c1[nH]c2c(Nc3c4ccccc4nc4ccccc34)c([N+](=O)[O-])c(Nc3c4ccccc4nc4ccccc34)c([N+](=O)[O-])c2[nH]1
Return: 11.5 µM

Enquiry: Assign TGI to the following record: CC(=O)OC12c3ccccc3C(c3ccccc31)C1C(=O)N(N=C(C)C)C(=O)C12 (configuration not stated)
Return: > 100 µM

Enquiry: Assign TGI to the following record: [O-][n+]1c2cccc(O)c2[n+]([O-])c2cccc(O)c21
Return: > 100 µM

Enquiry: Assign TGI to the following record: O=c1[nH]ncc2[nH]c3c(c12)CCc1ccccc1-3
Return: > 100 µM

Enquiry: Assign TGI to the following record: CCOC(=O)[C@@H](C)C[C@H](Cc1ccccc1)NC(=O)c1csc([C@@H](C[C@H](C(C)C)N(C)C(=O)CNC(=O)[C@H]2CCCCN2C)OC(C)=O)n1
Return: > 9.17 µM

Enquiry: Assign TGI to the following record: CCN1C(=O)N(CC)C2C1NC(=S)N2/N=C/C=C/c1ccccc1 (configuration not stated)
Return: > 100 µM

Enquiry: Assign TGI to the following record: Cc1cccc2c1nc1n2C(=O)c2ccccc2-1
Return: > 100 µM

Just for reference, PubChem BioAssay (NCI) is where these values come from.
